Data origin: the NIST ThermoML archive (doi:10.1016/j.fluid.2010.02.022)

Settings: 318 K; 101 kPa; Liquid; Pendant drop method
Quantity Measured: interfacial tension (mN/m)
Number only, in mN/m; omit the unit.

Task: I am curious: what interfacial tension value has been reported for CCCCCC[n+]1ccn(C)c1.O=S(=O)([N-]S(=O)(=O)C(F)(F)F)C(F)(F)F + O ?
Output: 13.78

Task: I am curious: what interfacial tension value has been reported for CCCCCCCCn1cc[n+](C)c1.O=S(=O)([N-]S(=O)(=O)C(F)(F)F)C(F)(F)F + O ?
Output: 14.61

Task: I am curious: what interfacial tension value has been reported for CCCC[n+]1ccn(C)c1.O=S(=O)([N-]S(=O)(=O)C(F)(F)F)C(F)(F)F + O ?
Output: 11.4

Task: I am curious: what interfacial tension value has been reported for Cn1cc[n+](C)c1.O=S(=O)([N-]S(=O)(=O)C(F)(F)F)C(F)(F)F [1,3-dimethylimidazolium bis((trifluoromethyl)sulfonyl)amide] + O ?
Output: 6.82

Task: I am curious: what interfacial tension value has been reported for CCCCCCCCCCn1cc[n+](C)c1.O=S(=O)([N-]S(=O)(=O)C(F)(F)F)C(F)(F)F + O ?
Output: 16.05

Task: I am curious: what interfacial tension value has been reported for CCn1cc[n+](C)c1.O=S(=O)([N-]S(=O)(=O)C(F)(F)F)C(F)(F)F + O ?
Output: 8.79

====

Conditions: 298 K; 101 kPa; Liquid; Pendant drop method
Quantity Measured: interfacial tension (mN/m)
Number only, in mN/m; omit the unit.

Task: I am curious: what interfacial tension value has been reported for CCCC[n+]1ccn(C)c1.O=S(=O)([N-]S(=O)(=O)C(F)(F)F)C(F)(F)F + CCCCCCCCCC ?
Output: 9.33

Task: I am curious: what interfacial tension value has been reported for CCCCn1cc[n+](C)c1.O=S(=O)([O-])C(F)(F)F [1-butyl-3-methylimidazolium trifluoromethanesulfonate] + CCCCCCCC ?
Output: 9.88

Task: I am curious: what interfacial tension value has been reported for CCCCn1cc[n+](C)c1.O=C([O-])C(F)(F)F [1-butyl-3-methylimidazolium trifluoroacetate] + CCCCCCCCCC ?
Output: 10.41

Task: I am curious: what interfacial tension value has been reported for CCCCCCCCn1cc[n+](C)c1.O=S(=O)([N-]S(=O)(=O)C(F)(F)F)C(F)(F)F + CCCCCCCC ?
Output: 3.69

Task: I am curious: what interfacial tension value has been reported for CCCCCCCCn1cc[n+](C)c1.O=S(=O)([N-]S(=O)(=O)C(F)(F)F)C(F)(F)F + CCCCCC ?
Output: 3.07

Task: I am curious: what interfacial tension value has been reported for CCCCCC[n+]1ccn(C)c1.O=S(=O)([N-]S(=O)(=O)C(F)(F)F)C(F)(F)F + CCCCCCCC ?
Output: 5.66

Task: I am curious: what interfacial tension value has been reported for CCn1cc[n+](C)c1.O=S(=O)([N-]S(=O)(=O)C(F)(F)F)C(F)(F)F + CCCCCCCCCC ?
Output: 12.75

====

Details: 298 K; 101 kPa; Liquid; Pendant drop method
Numbers after ± are expanded uncertainties.
Quantity Measured: interfacial tension
Express the reported value numerically, then name its unit.

Task: I am curious: what interfacial tension value has been reported for CCn1cc[n+](C)c1.O=S(=O)([N-]S(=O)(=O)C(F)(F)F)C(F)(F)F + CCCCCC ?
Output: 11.23 ± 0.22 mN/m

Task: I am curious: what interfacial tension value has been reported for CCCC[n+]1ccn(C)c1.O=S(=O)([N-]S(=O)(=O)C(F)(F)F)C(F)(F)F + O ?
Output: 13.2 ± 0.12 mN/m

Task: I am curious: what interfacial tension value has been reported for CCCCCC[n+]1ccn(C)c1.O=S(=O)([N-]S(=O)(=O)C(F)(F)F)C(F)(F)F + CCCCCC ?
Output: 5.1 ± 0.13 mN/m

Task: I am curious: what interfacial tension value has been reported for CCCCCCCCCCn1cc[n+](C)c1.O=S(=O)([N-]S(=O)(=O)C(F)(F)F)C(F)(F)F + O ?
Output: 17.41 ± 0.14 mN/m
